The measured values listed here are drawn from the RNAGym collection of RNA variant scans (doi:10.7554/elife.90254).

B1: LINE1-mini (parent)
chain: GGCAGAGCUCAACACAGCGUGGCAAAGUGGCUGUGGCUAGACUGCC

# Variants of: B1
# protocolText: self-cleavage, relative activity (ratio to wild type); higher = more cleavage; in vitro, sequencing; the parent is a self-cleaving ribozyme
I would appreciate it if you labelled entries met when self-cleavage is 0.1 or higher, otherwise not met.

Solved entries:
orderedResidues	assignedLabel
GGCAGAGCUCAACACAGCGUGGCAAAGAGGCUGUGGCUAGACUGCU	met
GGCAGGGCUCUACACAGCGUGGCAAAGUGGCUGUGGCUAGACUGCC	not met
GGCAGAGCUCAACACAGCGUGGCAAAGUGGCUGUGGCUAGGCUGCC	met
UGCAGAGCUCAAUACAGCGUGGCAAAGUGGCUGUGGCUAGACUGCC	not met

Q: Textbook exercise: given the entry "GGUAGAGCUCAACACAGCGUGGCAAAGUGGCUGUGGCUAUACUGCC" , state whether its self-cleavage is greater than or equal to 0.1.
A: met

Q: Again, but for "GGCAGAGAUCGACACAGCGUGGCAAAGUGGCUGUGGCUAGACUGCC"
A: not met

Q: Again, but for "GACUGAGCUCAACACAGCGUGGCAAAGUGGCUGUGGCUAGACUGCC"
A: met

Q: Again, but for "GGAAGAGCUCAACACAGCGUGGCAAAGUGGCUGUCGCUAGACUGCC"
A: met

Q: Again, but for "GGCAGAGCUCAACACAGCGUGGCAAAGUGGCUGUGGCUAGAAUCCC"
A: met

Q: Again, but for "GGCAGCGCUCAACACAGCGUGGCAAAGUGGCUGUGGCUAGACAGCC"
A: met

Q: Again, but for "GGCAGAGCUCAACACAGCAUGGCAAAGUGGCUUUGGCUAGACUGCC"
A: met

Q: Again, but for "GGCAGAACUCAACACAGCGUGGCAUAGUGGCUGUGGCUAGACUGCC"
A: met
